experiment: Stability and biodistribution of prodrugs in vivo (HPLC of plasma and tissues); design: species or system mice (CD-1 nude; BALB/C where indicated); details: LARGE INTESTINE, 120 min, 50 mg/kg i.p. or i.v., CD-1 nude mice
ATTRIBUTE MEASURED: concentration of prodrug in large intestine (nmol/g)
Answer with a number only, understood to be in nmol/g.

COMPOUND	RESULT
CN(Cc1cnc2nc(N)nc(N)c2n1)c1ccc(C(=O)N[C@@H](CCC(=O)O)C(=O)N[C@@H](Cc2cccc(C3CCC3)c2)C(=O)O)cc1 [Prodrug 11]	4.4
CN(Cc1cnc2nc(N)nc(N)c2n1)c1ccc(C(=O)N[C@@H](CCC(=O)O)C(=O)N[C@@H](Cc2ccccc2C2CCCC2)C(=O)O)cc1 [Prodrug 8]	27.3
CN(Cc1cnc2nc(N)nc(N)c2n1)c1ccc(C(=O)N[C@@H](CCC(=O)O)C(=O)N[C@@H](Cc2cccc(C3CCCC3)c2)C(=O)O)cc1 [Prodrug 9]	6.2
Nc1nc(N)c(CCCNc2ccc(C(=O)N[C@@H](CCC(=O)O)C(=O)N[C@@H](Cc3cccc(C4CCCC4)c3)C(=O)O)cc2)c(=O)[nH]1 [Prodrug 14]	34.6
CN(Cc1cnc2nc(N)nc(N)c2n1)c1ccc(C(=O)N[C@@H](CCC(=O)O)C(=O)N[C@@H](Cc2ccccc2)C(=O)O)cc1 [Prodrug 10, reference compound]	1.1
CN(Cc1cnc2nc(N)nc(N)c2n1)c1ccc(C(=O)N[C@@H](CCC(=O)O)C(=O)N[C@@H](Cc2ccc(O)c(C3CCCC3)c2)C(=O)O)cc1 [Prodrug 13]	12.5
Cc1nc2ccc3ccc(CNc4ccc(C(=O)N[C@@H](CCC(=O)O)C(=O)N[C@@H](CCC(=O)O)C(=O)O)c(F)c4)cc3c2c(=O)[nH]1 [Prodrug 1]	1.0
Cc1nc2ccc3ccc(CNc4ccc(C(=O)N[C@@H](CCC(=O)O)C(=O)N[C@@H](Cc5ccccc5I)C(=O)O)c(F)c4)cc3c2c(=O)[nH]1 [Prodrug 5]	1.6
CN(Cc1cnc2nc(N)nc(N)c2n1)c1ccc(C(=O)N[C@@H](CCC(=O)O)C(=O)N[C@@H](CC(=O)O)C(=O)O)cc1 [Prodrug 6]	19.4
Cc1nc2ccc3ccc(CNc4ccc(C(=O)N[C@@H](CCC(=O)O)C(=O)N[C@@H](Cc5ccccc5C(=O)O)C(=O)O)c(F)c4)cc3c2c(=O)[nH]1 [Prodrug 4]	45.4

Entry CN(Cc1cnc2nc(N)nc(N)c2n1)c1ccc(C(=O)N[C@@H](CCC(=O)O)C(=O)N[C@@H](Cc2ccccc2C(=O)O)C(=O)O)cc1 [Prodrug 7] has what concentration of prodrug in large intestine? 91.8

Recorded concentration of prodrug in large intestine for CN(Cc1cnc2nc(N)nc(N)c2n1)c1ccc(C(=O)N[C@@H](CCC(=O)O)C(=O)N[C@@H](Cc2cccc(C(C)(C)C)c2)C(=O)O)cc1 [Prodrug 12] , please? 14.7

###

test: Stability and biodistribution of prodrugs in vivo (HPLC of plasma and tissues); set-up: species or system mice (CD-1 nude; BALB/C where indicated); conditions: FECES, 30 min, 50 mg/kg i.p. or i.v., CD-1 nude mice
concentration of prodrug in feces less than 400 nmol/g is 1; concentration of prodrug in feces greater than or equal to 400 nmol/g is -1.

# example entries with known answers
COMPOUND	GROUP LABEL
CN(Cc1cnc2nc(N)nc(N)c2n1)c1ccc(C(=O)N[C@@H](CCC(=O)O)C(=O)N[C@@H](Cc2cccc(C(C)(C)C)c2)C(=O)O)cc1 [Prodrug 12]	-1
CN(Cc1cnc2nc(N)nc(N)c2n1)c1ccc(C(=O)N[C@@H](CCC(=O)O)C(=O)N[C@@H](CC(=O)O)C(=O)O)cc1 [Prodrug 6]	1
CN(Cc1cnc2nc(N)nc(N)c2n1)c1ccc(C(=O)N[C@@H](CCC(=O)O)C(=O)N[C@@H](Cc2ccccc2C2CCCC2)C(=O)O)cc1 [Prodrug 8]	1
CN(Cc1cnc2nc(N)nc(N)c2n1)c1ccc(C(=O)N[C@@H](CCC(=O)O)C(=O)N[C@@H](Cc2cccc(C3CCC3)c2)C(=O)O)cc1 [Prodrug 11]	-1
CN(Cc1cnc2nc(N)nc(N)c2n1)c1ccc(C(=O)N[C@@H](CCC(=O)O)C(=O)N[C@@H](Cc2cccc(C3CCCC3)c2)C(=O)O)cc1 [Prodrug 9]	-1

Report whether reported concentration of prodrug in feces is lower than 400 nmol/g (strictly) for Nc1nc(N)c(CCCNc2ccc(C(=O)N[C@@H](CCC(=O)O)C(=O)N[C@@H](Cc3cccc(C4CCCC4)c3)C(=O)O)cc2)c(=O)[nH]1 [Prodrug 14] -1

I wonder whether CN(Cc1cnc2nc(N)nc(N)c2n1)c1ccc(C(=O)N[C@@H](CCC(=O)O)C(=O)N[C@@H](Cc2ccc(O)c(C3CCCC3)c2)C(=O)O)cc1 [Prodrug 13] has concentration of prodrug in feces below 400 nmol/g. Can you tell? -1
